Provide the reported WT PsV IC50 of each item.
# target-or-system: SARS-CoV-2 wild type spike protein (on reporter virus particles) (SARS-CoV-2, UniProt P0DTC2 14-1273)
# protocol-summary: cell-based or functional assay
One number for each entry, in nM.

Take a look at these entries with their results.
binder | value-unit | WT PsV IC50
A-20.2 (antibody, V domains shown) VH: QVQLVQSGGGVVQPGRSLRLSCAASGFTFDNFAMHWVRQAPGKGLEWVAVIEYDGINKYYADSVKGRFTISRGNSKNTLSLQMNSLRAEDTAVYYCARAQNYYDRYGTLQLDAFDIWGQGTLVTVSS VL: AIQMTQSPSSLSASVGDRVTITCRASQGIRNDLGWYQQKPGKAPKLLIYDASSLQSGVPSRFSGSGSGTDFTLTISSLQPEDFATYYCLQDYNYPLTFGGGTKVEIK | nM | 1.06
A-23 (antibody, V domains shown) VH: EVQLVESGGGLVQPGRSLRLSCAASGFTFDDYAMHWVRQAPGKGLEWVSGISWNSGTIGYADSVKGRFIISRDNAKNSLYLQMNSLRGEDMALYYCGKDRKREDPSLGGMDVWGQGTTVTVSS VL: SYVLTQPPSVSVAPGQTARITCGGNNIGSKSVHWYQQKPGQAPVLVVYDDTDRPSGIPERFSGSNSGNTATLTISRVEAGDEADYYCQVWDSSSDHYVFGTGTKVTVL | nM | 0.539

As a next step, examine the binder that follows.
*Q* // fetch WT PsV IC50 given entry A-21 (antibody, V domains shown) VH: EVQLVESGGGLVQPGGSLRLSCAASGFTFSRYWMHWVRQAPGKGLVWVSRINSDGSSTTYADSVKGRFTISRDNAKNTLYLQMNSLRAEDTAVYYCARELYYYDSRGAEEGEGWFDPWGQGTLVTVSS VL: QSVLTQPPSVSGAPGQRVTISCTGISSNIGAGYDVHWYQQLPGTAPKLLIYGNSNRPSGVPDRFSASKSGTSAPLAITGLQAEDEADYYCQSSDRSLSGSVFGTGTKVTVL
*A* 2.78

These data points were gathered from patent US20260217797A1.
